These measurements were taken from patent US12110293B2.

compounds and their reported IC50 or EC50 (agonist or antagonist mode not specified)
EXPERIMENTAL_TARGET: glucocorticoid receptor (Homo sapiens)
Construct: expressed in transfected cells
Sequence (P04150 524-758 limits assumed): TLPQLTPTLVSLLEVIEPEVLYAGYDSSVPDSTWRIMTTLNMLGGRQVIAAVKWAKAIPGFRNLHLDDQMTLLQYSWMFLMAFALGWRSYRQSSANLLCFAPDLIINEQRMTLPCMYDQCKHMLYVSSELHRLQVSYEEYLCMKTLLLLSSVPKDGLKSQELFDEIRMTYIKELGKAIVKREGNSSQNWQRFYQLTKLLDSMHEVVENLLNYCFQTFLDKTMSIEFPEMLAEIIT
PROTOCOL_DETAILS: Agonistic mode of action on the glucocorticoid receptor (CHO-Gal4/GR luciferase reporter cell line)
Format: cell-based
CONDITION_DESCRIPTION: range class observed in the agonistic assay or the antagonistic assay (CHO-Gal4/GR reporter cells); table does not say which mode applies per example

COMPOUND	VALUE
COc1c(-c2cccc3c2ccn3CC(F)F)c(F)cc2c1-n1c(C)nnc1C(C)(C)N2 [Example 397]	100 to 1000 nM
Cc1nnc2n1-c1c(cc(Cl)c(-c3cccc4c3cnn4C)c1F)NC2(C)C [Example 285]	1000 to 15000 nM

[Q] Fill blank: measured IC50 or EC50 (agonist or antagonist mode not specified) of the compound Cc1c[nH]c2c(-c3c(C(F)F)cc4c(c3F)-n3c(C)nnc3C(C)(C)N4)cccc12 [Example 306] is ____.
[A] 100 to 1000 nM

[Q] Entry CCS(=O)(=O)n1ccc2c(-c3c(F)cc4c(c3F)-n3c(C)nnc3C(C)(C)N4)cc(F)cc21 [Example 18] has what IC50 or EC50 (agonist or antagonist mode not specified)?
[A] 100 to 1000 nM

[Q] Need IC50 or EC50 (agonist or antagonist mode not specified) of CC#Cc1c[nH]c2c(-c3c(F)cc4c(c3C)-n3c(COC)nnc3C(C)(C)N4)cc(F)cc12 [Example 76] , thanks.
[A] < 100 nM

[Q] Returns the measured IC50 or EC50 (agonist or antagonist mode not specified) for the input compound. Input: Cc1nnc2n1-c1c(cc(F)c(-c3cc(F)cc4c3cnn4CC(F)F)c1F)NC2(C)C [Example 489]
[A] < 100 nM

[Q] Please look up its IC50 or EC50 (agonist or antagonist mode not specified): COc1cc2c(c(C(F)(F)F)c1-c1cc(F)cc3c1ccn3S(C)(=O)=O)-n1c(C)nnc1C(C)(C)N2 [Example 329]
[A] 100 to 1000 nM

[Q] Quick check: IC50 or EC50 (agonist or antagonist mode not specified) of Cc1cc2c(c(C)c1-c1cc(F)cc3c(C)c[nH]c13)-n1c(C)nnc1C(C)(C)N2 [Example 341] ?
[A] 100 to 1000 nM

[Q] I'd like to know its IC50 or EC50 (agonist or antagonist mode not specified). The compound in question is CCS(=O)(=O)n1ccc2c(-c3c(F)cc4c(c3OC)-n3c(C)nnc3C(C)(C)N4)cc(F)cc21 [Example 362]
[A] < 100 nM
